- Tested on: Streptococcus pneumoniae (DSM20566)
- assay_info: In vitro antibacterial activity (MIC), S. pneumoniae
- Assay type: cell-based
- stated_conditions: Streptococcus pneumoniae, DSM20566; Table S2, with standard deviation; read-out: Sp MIC95
Kindly apply the following: satisfied if MIC is less than 30 µM, not satisfied in every other case.

[
  {
    "compound": "O=C(Nc1cccc(CN2CCOCC2)c1)c1cc(-c2cc(Cl)ccc2O)[nH]n1",
    "group_label": "not satisfied"
  },
  {
    "compound": "O=C(Nc1ccc(CNC2=NCCN2)cc1)c1cc(-c2cc(Cl)ccc2O)[nH]n1",
    "group_label": "not satisfied"
  },
  {
    "compound": "O=C(Nc1cc(N2CCNCC2)cc(C(F)(F)F)c1)c1cc(-c2cc(Cl)ccc2O)[nH]n1 [Compound 11A]",
    "group_label": "satisfied"
  },
  {
    "compound": "O=C(Nc1ccc(N2CCNCC2)cc1)c1cc(-c2cc(Cl)ccc2O)[nH]n1",
    "group_label": "not satisfied"
  },
  {
    "compound": "O=C(Nc1ccc(CNC2=NCCN2)c(C(F)(F)F)c1)c1cc(-c2cc(Cl)ccc2O)[nH]n1 [Compound 10C]",
    "group_label": "satisfied"
  },
  {
    "compound": "N=C(N)N1CCN(c2cc(NC(=O)c3cc(-c4cc(Cl)ccc4O)[nH]n3)cc(C(F)(F)F)c2)CC1 [Compound 11G]",
    "group_label": "satisfied"
  },
  {
    "compound": "O=C(Nc1cccc([N+](=O)[O-])c1)c1cc(-c2cc(Cl)ccc2O)[nH]n1",
    "group_label": "not satisfied"
  },
  {
    "compound": "O=C(Nc1cccc(N2CCNCC2)c1)c1cc(-c2cc(Cl)ccc2O)[nH]n1",
    "group_label": "satisfied"
  }
]

----------
# key: entry, value: MIC
- Tested on: Escherichia coli ∆tolC
- assay_info: microbe, parasite or virus in culture
- Assay type: cell-based
- stated_conditions: Escherichia coli, read-out: EcΔtolC MIC95
measurement_type: MIC (µM)

[
  {
    "molecule": "CC(C)(C)OC(=O)N1CCN(Cc2cccc(NC(=O)c3cc(-c4cc(Cl)ccc4O)[nH]n3)c2)CC1",
    "measurement_type": "MIC",
    "relational_operator": ">",
    "recorded_result": 50
  },
  {
    "molecule": "CC(C)(C)OC(=O)N1CCN(Cc2ccc(NC(=O)c3cc(-c4cc(Cl)ccc4O)[nH]n3)cc2)CC1",
    "measurement_type": "MIC",
    "relational_operator": ">",
    "recorded_result": 50
  },
  {
    "molecule": "O=C(Nc1cccc(F)c1)c1cc(-c2cc(Cl)ccc2O)[nH]n1",
    "measurement_type": "MIC",
    "relational_operator": ">",
    "recorded_result": 50
  },
  {
    "molecule": "O=C(c1cc(-c2cc(Cl)ccc2O)[nH]n1)N1CCNCC1 [Compound 14A]",
    "measurement_type": "MIC",
    "relational_operator": ">",
    "recorded_result": 50
  },
  {
    "molecule": "O=C(Nc1ccc(N2CCNCC2)cc1)c1cc(-c2cc(Cl)ccc2O)[nH]n1",
    "measurement_type": "MIC",
    "relational_operator": "=",
    "recorded_result": 22.5
  },
  {
    "molecule": "O=C(Nc1ccc(C(F)(F)F)c(N2CCNCC2)c1)c1cc(-c2cc(Cl)ccc2O)[nH]n1 [Compound 13A]",
    "measurement_type": "MIC",
    "relational_operator": ">",
    "recorded_result": 50
  },
  {
    "molecule": "Cc1ccc(NC(=O)c2cc(-c3cc(Cl)ccc3O)[nH]n2)cc1",
    "measurement_type": "MIC",
    "relational_operator": ">",
    "recorded_result": 50
  },
  {
    "molecule": "N=C(N)NCc1cc(NC(=O)c2cc(-c3cc(Cl)ccc3O)[nH]n2)cc(C(F)(F)F)c1",
    "measurement_type": "MIC",
    "relational_operator": "=",
    "recorded_result": 5
  },
  {
    "molecule": "O=C(Nc1cccc(CN2CCNCC2)c1)c1cc(-c2cc(Cl)ccc2O)[nH]n1",
    "measurement_type": "MIC",
    "relational_operator": "=",
    "recorded_result": 45
  },
  {
    "molecule": "O=C(Nc1ccc(CNC2=NCCN2)c(C(F)(F)F)c1)c1cc(-c2cc(Cl)ccc2O)[nH]n1 [Compound 10C]",
    "measurement_type": "MIC",
    "relational_operator": "=",
    "recorded_result": 5.5
  },
  {
    "molecule": "CC(C)(C)OC(=O)N1CCN(c2ccc(NC(=O)c3cc(-c4cc(Cl)ccc4O)[nH]n3)cc2C(F)(F)F)CC1 [Compound 12B]",
    "measurement_type": "MIC",
    "relational_operator": ">",
    "recorded_result": 50
  },
  {
    "molecule": "O=C(Nc1cc(N2CCN(C3=NCCN3)CC2)cc(C(F)(F)F)c1)c1cc(-c2cc(Cl)ccc2O)[nH]n1 [Compound 11C]",
    "measurement_type": "MIC",
    "relational_operator": "=",
    "recorded_result": 7
  },
  {
    "molecule": "O=C(Nc1ccc(CNC2=NCCN2)cc1)c1cc(-c2cc(Cl)ccc2O)[nH]n1",
    "measurement_type": "MIC",
    "relational_operator": "=",
    "recorded_result": 21.5
  },
  {
    "molecule": "N=C(N)NCc1ccc(NC(=O)c2cc(-c3cc(Cl)ccc3O)[nH]n2)cc1",
    "measurement_type": "MIC",
    "relational_operator": "=",
    "recorded_result": 47.5
  },
  {
    "molecule": "O=C(Nc1cccc(CN2CCOCC2)c1)c1cc(-c2cc(Cl)ccc2O)[nH]n1",
    "measurement_type": "MIC",
    "relational_operator": ">",
    "recorded_result": 50
  },
  {
    "molecule": "CC(C)(C)OC(=O)NCc1cc(NC(=O)c2cc(-c3cc(Cl)ccc3O)[nH]n2)cc(C(F)(F)F)c1",
    "measurement_type": "MIC",
    "relational_operator": ">",
    "recorded_result": 50
  },
  {
    "molecule": "O=C(Nc1ccc(CN2CCNCC2)cc1)c1cc(-c2cc(Cl)ccc2O)[nH]n1",
    "measurement_type": "MIC",
    "relational_operator": "=",
    "recorded_result": 40
  },
  {
    "molecule": "CC(C)(C)OC(=O)N1CCN=C1NCc1ccc(NC(=O)c2cc(-c3cc(Cl)ccc3O)[nH]n2)cc1",
    "measurement_type": "MIC",
    "relational_operator": ">",
    "recorded_result": 50
  },
  {
    "molecule": "CC(C)(C)OC(=O)N1CCN(c2cc(NC(=O)c3cc(-c4cc(Cl)ccc4O)[nH]n3)cc(C(F)(F)F)c2)CC1 [Compound 11B]",
    "measurement_type": "MIC",
    "relational_operator": ">",
    "recorded_result": 50
  },
  {
    "molecule": "N=C(N)N1CCN(c2ccc(NC(=O)c3cc(-c4cc(Cl)ccc4O)[nH]n3)cc2C(F)(F)F)CC1 [Compound 12G]",
    "measurement_type": "MIC",
    "relational_operator": "=",
    "recorded_result": 2.8
  },
  {
    "molecule": "N=C(N)NCc1cccc(NC(=O)c2cc(-c3cc(Cl)ccc3O)[nH]n2)c1",
    "measurement_type": "MIC",
    "relational_operator": "=",
    "recorded_result": 13
  },
  {
    "molecule": "CC(C)(C)OC(=O)N1CCN(c2cc(NC(=O)c3cc(-c4cc(Cl)ccc4O)[nH]n3)ccc2C(F)(F)F)CC1 [Compound 13B]",
    "measurement_type": "MIC",
    "relational_operator": ">",
    "recorded_result": 50
  },
  {
    "molecule": "N=C(N)N1CCN(c2cccc(NC(=O)c3cc(-c4cc(Cl)ccc4O)[nH]n3)c2)CC1",
    "measurement_type": "MIC",
    "relational_operator": "=",
    "recorded_result": 11
  },
  {
    "molecule": "O=C(Nc1cccc([N+](=O)[O-])c1)c1cc(-c2cc(Cl)ccc2O)[nH]n1",
    "measurement_type": "MIC",
    "relational_operator": ">",
    "recorded_result": 50
  },
  {
    "molecule": "O=C(Nc1cccc(C(F)(F)F)c1)c1cc(-c2cc(Cl)ccc2O)[nH]n1",
    "measurement_type": "MIC",
    "relational_operator": ">",
    "recorded_result": 50
  }
]

// provenance: paper PMC11938010
